Biological target: Saccharomyces cerevisiae α-glucosidase (E.C 3.2.1.20) (Saccharomyces cerevisiae, UniProt P53341)
Construct: purchased Sigma Aldrich Co (Saint Louis, MO, USA)
Sequence (P53341 whole entry): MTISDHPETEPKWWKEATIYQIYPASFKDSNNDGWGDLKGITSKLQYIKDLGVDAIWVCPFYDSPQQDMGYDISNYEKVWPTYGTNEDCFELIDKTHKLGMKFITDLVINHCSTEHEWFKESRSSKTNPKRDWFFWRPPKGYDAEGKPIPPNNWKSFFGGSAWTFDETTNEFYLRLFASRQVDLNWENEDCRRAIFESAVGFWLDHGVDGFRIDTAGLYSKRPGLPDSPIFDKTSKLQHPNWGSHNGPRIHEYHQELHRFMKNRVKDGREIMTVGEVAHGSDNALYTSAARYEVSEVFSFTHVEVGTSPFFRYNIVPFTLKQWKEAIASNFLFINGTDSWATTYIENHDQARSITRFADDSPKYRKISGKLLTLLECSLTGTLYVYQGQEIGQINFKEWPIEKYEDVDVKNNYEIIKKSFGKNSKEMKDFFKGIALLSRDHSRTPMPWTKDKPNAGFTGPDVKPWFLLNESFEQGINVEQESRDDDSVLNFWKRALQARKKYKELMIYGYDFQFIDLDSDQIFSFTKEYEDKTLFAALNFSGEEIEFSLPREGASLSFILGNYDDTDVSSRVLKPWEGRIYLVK
Experiment: biochemical
Conditions: in vitro, 37 °C, pH 6.9, triplicate; read-out: IC50, alpha-glucosidase inhibitory activity (converted)
recorded endpoint: IC50 (µM)

The examples below pair each entry with its known result.
{"compound": "O=C(O)c1cc(O)cc(O)c1 [Compound 1, 3,5-dihydroxybenzoic acid]", "IC50, µM": 729}
{"compound": "COc1c(O)cc(C(=O)O)cc1O [Compound 4, 3,5-dihydroxy-4-methoxylbenzoic acid]", "IC50, µM": 929}
{"compound": "COC(=O)c1cc(O)cc(O)c1 [Compound 2, 3,5-dihydroxybenzoate methyl]", "IC50, µM": 939}

P: Cc1cc(O)c(O)c(O)c1 [Compound 5, 3-hydroxyorcinol]
Q: COC(=O)c1c(C)cc(O)c(C=O)c1O [Compound 7, methyl hematommate]
// query Hi there! Just curious which has the higher IC50 between P and Q . Pick one and reply with its label.
// result P
(P: 694 µM, Q: 294 µM)

====

Target: Saccharomyces cerevisiae α-glucosidase (E.C 3.2.1.20) (Saccharomyces cerevisiae)
Construct: purchased Sigma Aldrich Co (Saint Louis, MO, USA)
Assay: biochemical
recorded endpoint: IC50 (µM)
Hi! Could you send only the number? It should be in µM, unit omitted.

{"compound": "COC(=O)c1c(C)c(Br)c(O)c(Br)c1O [Compound 9a, methyl 3,5-dibromo-orsellinate]", "unit abbreviation": "µM", "IC50": 459}
{"compound": "Cc1cc(O)c(Br)c(O)c1C(=O)OCC(O)C(O)CO [Compound 10a, 3-bromo-D-montagnetol]", "unit abbreviation": "µM", "IC50": 381}
{"compound": "Cc1c(O)cc(C(=O)O)cc1O [Compound 3, 3,5-dihydroxy-4-methylbenzoic acid]", "unit abbreviation": "µM", "IC50": 143}
{"compound": "COC(=O)c1c(C)c(Br)c(O)c(C)c1O [Compound 8a, methyl 5-bromo-β-orsellinate]", "unit abbreviation": "µM", "IC50": 606}

// query Which IC50 is listed for Cc1c(Br)c(O)c(Br)c(O)c1C(=O)OCC(O)C(O)CO [Compound 10b, 3,5-dibromo-D-montagnetol] ?
// result 301

====

Target: Saccharomyces cerevisiae α-glucosidase (E.C 3.2.1.20) (Saccharomyces cerevisiae)
Construct: purchased Sigma Aldrich Co (Saint Louis, MO, USA)
Experiment: biochemical
recorded endpoint: IC50

A selection of reference data follows.
{"molecule": "Cc1cc(O)cc(O)c1C(=O)OCC(O)C(O)CO (stereo not shown)", "IC50": "> 1.1 mM"}
{"molecule": "COC(=O)c1c(C)cc(O)cc1O [Compound 9, methyl orsellinate]", "IC50": "> 1.65 mM"}
{"molecule": "COC(=O)c1c(C)cc(O)c(C)c1O [Compound 8, methyl β-orsellinate]", "IC50": "> 1.53 mM"}

// query IC50 of `Cc1cc(O)c(C=O)c(O)c1` on Saccharomyces cerevisiae α-glucosidase (E.C 3.2.1.20) (Saccharomyces cerevisiae)?
// result > 1.97 mM
